Every entry's value here was drawn from patent US11324708B1.

# Assay notes: in vivo
# Setup conditions: sheep, systemic exposure Cmax (range)
Reported endpoint: Cmax

Query string: Would you mind telling me what Cmax value was observed for O=C(Nc1ccc([N+](=O)[O-])cc1Cl)c1cc(Cl)ccc1O [niclosamide] ?
Result string: 217 to 803 ng/mL

###

# Assay notes: in vivo
# Setup conditions: sheep, systemic exposure Cmax (mean)
Reported endpoint: Cmax (µg/mL)
# unit: µg/mL | format: bare number

Query string: What does the record list as Cmax for O=C(Nc1ccc([N+](=O)[O-])cc1Cl)c1cc(Cl)ccc1O [niclosamide] ?
Result string: 0.577
